Target: mPAP (Mus musculus, UniProt Q8CE08)
Assay: Fluorogenic
Assay type: biochemical
Settings: read-out: IC50 mPAP, fluorogenic assay; positive control, DiFMUP substrate
endpoint: IC50 (nM)
API: value field is a number in nM; no unit string.

IC50 measured on O=P(O)(O)C(NCc1ccccc1)c1ccccc1 (stereo not drawn) [BABPA, α-Benzylaminobenzylphosphonic acid] = 20.6

----------
Biological target: hPAP (Homo sapiens, UniProt P15309)
Assay: 5′-AMP hydrolysis
Format: biochemical
Details: read-out: hPAP 5′-AMP Hydrolysis IC50; 400 μM AMP, pH 7.0
Listing of recorded IC50 by entry.
State the result as a value with its unit after it.

compound: COc1ccc2c(c1)c(CC(=O)O)c(C)n2Cc1ccc(Cl)cc1
IC50: 46.3 µM

Item: Nc1ncnc2c1nc(Sc1ccc(Cl)cc1)n2C1OC2COP(=O)(O)O[C@H]2C1O (stereo in doubt) [compound 21, 8-(4-Chlorophenylthio)-cAMP sodium] | IC50: 5.66 µM

----------
Examples of compounds with documented pIC50 follow.
Biological target: hPAP (Homo sapiens)
Sequence (P15309 33-386): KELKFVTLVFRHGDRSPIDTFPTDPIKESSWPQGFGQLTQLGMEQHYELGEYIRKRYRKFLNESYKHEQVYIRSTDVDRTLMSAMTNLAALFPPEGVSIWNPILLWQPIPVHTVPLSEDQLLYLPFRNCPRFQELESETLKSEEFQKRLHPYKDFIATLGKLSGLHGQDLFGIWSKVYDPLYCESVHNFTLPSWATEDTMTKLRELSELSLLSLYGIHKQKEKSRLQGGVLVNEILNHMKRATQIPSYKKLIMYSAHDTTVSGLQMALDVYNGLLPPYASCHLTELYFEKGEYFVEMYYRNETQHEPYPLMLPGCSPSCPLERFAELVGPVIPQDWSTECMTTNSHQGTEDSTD
Assay: 5′-AMP hydrolysis
Assay type: biochemical
pIC50 (log units): -log10 of the concentration in mol/L.

// worked examples, pIC50 included
compound: Clc1ccc(C(c2ccc(Cl)cc2)n2cc[n+](CC(OCc3ccc(Cl)cc3Cl)c3ccc(Cl)cc3Cl)c2)cc1 (centres unmarked) [compound 29, Calmidazolium chloride]
assayTarget: hPAP (Homo sapiens)
endpoint: pIC50
quantitativeResult: 5.83
//
compound: CCn1cc(C(=O)O)c(=O)c2ccc(C)nc21 [compound 77, Nalidixic acid sodium]
assayTarget: hPAP (Homo sapiens)
endpoint: pIC50
quantitativeResult: 4.69
//
compound: O=C(O)c1nn(Cc2ccc(Cl)cc2Cl)c2ccccc12
assayTarget: hPAP (Homo sapiens)
endpoint: pIC50
quantitativeResult: 4.81

For record O=c1c(O)c(-c2cc(O)c(O)c(O)c2)oc2cc(O)cc(O)c12 the listed pIC50 is 4.58

Just so you know, measured pIC50 for CCCOc1ccc2ccccc2c1/C=C/c1nc(O)c([N+](=O)[O-])c(=O)[nH]1 came out at 5.54

----------
Target: mPAP (Mus musculus)
Assay: 5′-AMP hydrolysis
Assay type: biochemical
endpoint: pIC50
Keep it numeric: pIC50 is minus log10 of the concentration in mol/L.

A selection of reference data follows.
molecule: Clc1ccc(C(c2ccc(Cl)cc2)n2cc[n+](CC(OCc3ccc(Cl)cc3Cl)c3ccc(Cl)cc3Cl)c2)cc1 (stereo not shown) [compound 29, Calmidazolium chloride]
quantitativeResult: 4.94
//
molecule: CCCOc1ccc2ccccc2c1/C=C/c1nc(O)c([N+](=O)[O-])c(=O)[nH]1
quantitativeResult: 4.37
//
molecule: CCn1cc(C(=O)O)c(=O)c2ccc(C)nc21 [compound 77, Nalidixic acid sodium]
quantitativeResult: 4.69

pIC50 in this record for O=C(O)c1nn(Cc2ccc(Cl)cc2Cl)c2ccccc12 : 4.51

----------
Target: pAP
Assay: Fluorogenic
Format: biochemical, potato
Settings: read-out: pAP Fluorogenic Assay IC50; DiFMUP substrate, pH 5.3
endpoint: pIC50
pIC50 is defined as minus the log10 of a concentration measured in mol/L.

Recorded result, CCCCCCC(C)(C)c1ccc([C@@H]2C[C@H](O)CC[C@H]2CCCO)c(O)c1 [compound 96, CP-55940] , pIC50: 4.40

----------
Target: mPAP (Mus musculus, UniProt Q8CE08)
Sequence (Q8CE08 32-381): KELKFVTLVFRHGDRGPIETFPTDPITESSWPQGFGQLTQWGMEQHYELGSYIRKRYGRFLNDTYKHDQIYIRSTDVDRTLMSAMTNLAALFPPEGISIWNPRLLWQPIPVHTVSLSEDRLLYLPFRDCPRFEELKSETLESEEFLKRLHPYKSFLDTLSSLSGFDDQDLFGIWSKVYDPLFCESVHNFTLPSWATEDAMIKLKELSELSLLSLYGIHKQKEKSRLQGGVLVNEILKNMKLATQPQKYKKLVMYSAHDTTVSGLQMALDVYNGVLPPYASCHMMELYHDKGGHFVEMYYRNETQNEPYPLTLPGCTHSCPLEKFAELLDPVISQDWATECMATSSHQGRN
Assay: Fluorogenic
Type: biochemical
endpoint: IC50

compound: CCCCCCC(C)(C)c1ccc([C@@H]2C[C@H](O)CC[C@H]2CCCO)c(O)c1 [compound 96, CP-55940]
assayTarget: mPAP (Mus musculus, UniProt Q8CE08)
result: 15.8 µM

compound: CCn1cc(C(=O)O)c(=O)c2ccc(C)nc21 [compound 77, Nalidixic acid sodium]
assayTarget: mPAP (Mus musculus, UniProt Q8CE08)
result: 2.8 µM

Next item in the queue.
Record summary for Clc1ccc(C(c2ccc(Cl)cc2)n2cc[n+](CC(OCc3ccc(Cl)cc3Cl)c3ccc(Cl)cc3Cl)c2)cc1 (stereo not drawn) [compound 29, Calmidazolium chloride] : reported IC50 = 39.8 µM

----------
Recorded IC50 for the following compounds
Target: hPAP (Homo sapiens, UniProt P15309)
Test: Fluorogenic
Format: biochemical
The figure you give is taken to be in µM; do not add the unit.

Sample records with IC50:
compound: Clc1ccc(C(c2ccc(Cl)cc2)n2cc[n+](CC(OCc3ccc(Cl)cc3Cl)c3ccc(Cl)cc3Cl)c2)cc1 (stereo not drawn) [compound 29, Calmidazolium chloride]
endpoint: IC50
quantitativeResult: 44.7
--
compound: O=c1c(O)c(-c2cc(O)c(O)c(O)c2)oc2cc(O)cc(O)c12
endpoint: IC50
quantitativeResult: 44.7
--
compound: O=c1c(O)c(-c2ccc(O)c(O)c2)oc2cc(O)cc(O)c12
endpoint: IC50
quantitativeResult: 31.6
--
compound: CCn1cc(C(=O)O)c(=O)c2ccc(C)nc21 [compound 77, Nalidixic acid sodium]
endpoint: IC50
quantitativeResult: 28.2
--
compound: CCCCCCC(C)(C)c1ccc([C@@H]2C[C@H](O)CC[C@H]2CCCO)c(O)c1
endpoint: IC50
quantitativeResult: 31.6

O=C(O)c1nn(Cc2ccc(Cl)cc2Cl)c2ccccc12 on hPAP (Homo sapiens, UniProt P15309) gives IC50 = 50.1

----------
Biological target: mPAP (Mus musculus, UniProt Q8CE08)
Assay: Fluorogenic
Type: biochemical
Conditions: read-out: IC50 mouse secretory PAP, fluorogenic substrate
endpoint: IC50 (µM)
Just the number in µM, nothing appended.

For reference, reported IC50 for Nc1nc2c(nc(Sc3ccc(Cl)cc3)n2[C@@H]2O[C@@H]3COP(=O)(O)O[C@H]3[C@H]2O)c(=O)[nH]1 stands at 49.7

----------
Molecular target: mPAP (Mus musculus, UniProt Q8CE08)
Test: Fluorogenic
Format: biochemical
Settings: read-out: mPAP Fluorogenic Assay IC50; DiFMUP substrate, pH 7.0
endpoint: pIC50
Quick note: pIC50 values are minus log10 of concentrations in mol/L.

// Nc1ncnc2c1nc(Sc1ccc(Cl)cc1)n2C1OC2COP(=O)(O)O[C@H]2C1O (stereo in doubt) [compound 21, 8-(4-Chlorophenylthio)-cAMP sodium] : pIC50 value = 4.45

----------
Test system: pAP
Assay: Fluorogenic
Type: biochemical, potato
Conditions: DiFMUP substrate, pH 5.3
endpoint: pAP Fluorogenic Assay IC50

Known results for molecules:
molecule: Clc1ccc(C(c2ccc(Cl)cc2)n2cc[n+](CC(OCc3ccc(Cl)cc3Cl)c3ccc(Cl)cc3Cl)c2)cc1 (stereo not shown) [compound 29, Calmidazolium chloride]
result: Inactive
--
molecule: O=c1c(O)c(-c2ccc(O)c(O)c2)oc2cc(O)cc(O)c12
result: Inactive
--
molecule: O=C(O)c1nn(Cc2ccc(Cl)cc2Cl)c2ccccc12
result: Inactive
--
molecule: O=c1c(O)c(-c2cc(O)c(O)c(O)c2)oc2cc(O)cc(O)c12
result: Inactive
--
molecule: CCn1cc(C(=O)O)c(=O)c2ccc(C)nc21 [compound 77, Nalidixic acid sodium]
result: Inactive

pAP Fluorogenic Assay IC50 reported for this molecule COc1ccc2c(c1)c(CC(=O)O)c(C)n2Cc1ccc(Cl)cc1 : Inactive

pAP Fluorogenic Assay IC50 for Nc1ncnc2c1nc(Sc1ccc(Cl)cc1)n2C1OC2COP(=O)(O)O[C@H]2C1O (stereo in doubt) [compound 21, 8-(4-Chlorophenylthio)-cAMP sodium] is Inactive
